Recorded CC50 at 48 h by entry
METHOD_NOTES: Cytotoxicity against human MCF7 cells assessed as decrease in cell viability after 48 hrs by XTT assay
Type: cell-based
EXPERIMENTAL_READOUT: CC50 at 48 h (µM)

>>> df
                               query_smiles  unit_annotation  readout_relation  assay_value
0  Nc1ccc2c(c1)[N+]([O-])=C(c1ccc(Cl)cc1)C2=O               µM                 =           11
1  Nc1ccc2c(c1)[N+]([O-])=C(CCCN1C(=O)c3ccccc3C1=O)C2=O               µM                 =          6.6
2  CCOC(=O)c1ccc2c(c1)[N+]([O-])=C(c1ccccc1)C2=O               µM                 =         26.4
3  COc1ccc2c(c1)C(=O)C(c1ccc(N(C)C)c(C)c1)=[N+]2[O-]               µM                 =         35.4
4  COc1ccc(C2=[N+]([O-])c3cc(N)ccc3C2=O)cc1               µM                 >         37.3

====

METHOD_NOTES: Half life in human liver microsomes
Format: ADME
EXPERIMENTAL_READOUT: half-life

In [3]: df
Out[3]:
                               query_smiles  experimental_readout  assay_value
0  O=C1C(c2ccc(Cl)cc2)=[N+]([O-])c2cc3c(cc21)OCO3             half-life      < 1 min

====

Recorded CC50 at 48 h by entry
METHOD_NOTES: Cytotoxicity against human MCF7 cells assessed as decrease in cell viability after 48 hrs by XTT assay
Assay type: cell-based
EXPERIMENTAL_READOUT: CC50 at 48 h (µM)

                               query_smiles  assay_value
0  COc1ccc2c(c1)C(=O)C(c1ccc(N(C)C)cc1)=[N+]2[O-].Cl         33.7
1  COc1ccc2cc(C3=[N+]([O-])c4cc(N)ccc4C3=O)ccc2c1          7.8
2      Nc1ccc(C2=[N+]([O-])c3ccccc3C2=O)cc1           13

====

Recorded pIC50 by entry
Tested on: Plasmodium falciparum
METHOD_NOTES: Antiplasmodial activity against chloroquine-resistant Plasmodium falciparum FcB1 infected in human RBC assessed as [3H]-hypoxanthine incorporation after 48 hrs by liquid scintillation counting analysis
Format: functional, organism-based
EXPERIMENTAL_CONTEXT: Plasmodium falciparum, FcB1
pIC50: −log10 of the molar value.
EXPERIMENTAL_READOUT: pIC50

In [3]: df
Out[3]:
                               query_smiles  experimental_readout  assay_value
0   O=C1C(c2ccc(Cl)cc2)=[N+]([O-])c2cccnc21                 pIC50       < 5.57
1  COc1ccc2c(c1)C(=O)C(c1ccc(N)cc1)=[N+]2[O-].Cl                 pIC50       > 8.52
2  O=C1C(c2ccc(Cl)cc2)=[N+]([O-])c2cc[n+]([O-])cc21                 pIC50       < 5.26
